# EXPERIMENTAL_TARGET: DNA topoisomerase 1 (Homo sapiens) (UniProt P11387)
# Sequence (P11387 whole entry): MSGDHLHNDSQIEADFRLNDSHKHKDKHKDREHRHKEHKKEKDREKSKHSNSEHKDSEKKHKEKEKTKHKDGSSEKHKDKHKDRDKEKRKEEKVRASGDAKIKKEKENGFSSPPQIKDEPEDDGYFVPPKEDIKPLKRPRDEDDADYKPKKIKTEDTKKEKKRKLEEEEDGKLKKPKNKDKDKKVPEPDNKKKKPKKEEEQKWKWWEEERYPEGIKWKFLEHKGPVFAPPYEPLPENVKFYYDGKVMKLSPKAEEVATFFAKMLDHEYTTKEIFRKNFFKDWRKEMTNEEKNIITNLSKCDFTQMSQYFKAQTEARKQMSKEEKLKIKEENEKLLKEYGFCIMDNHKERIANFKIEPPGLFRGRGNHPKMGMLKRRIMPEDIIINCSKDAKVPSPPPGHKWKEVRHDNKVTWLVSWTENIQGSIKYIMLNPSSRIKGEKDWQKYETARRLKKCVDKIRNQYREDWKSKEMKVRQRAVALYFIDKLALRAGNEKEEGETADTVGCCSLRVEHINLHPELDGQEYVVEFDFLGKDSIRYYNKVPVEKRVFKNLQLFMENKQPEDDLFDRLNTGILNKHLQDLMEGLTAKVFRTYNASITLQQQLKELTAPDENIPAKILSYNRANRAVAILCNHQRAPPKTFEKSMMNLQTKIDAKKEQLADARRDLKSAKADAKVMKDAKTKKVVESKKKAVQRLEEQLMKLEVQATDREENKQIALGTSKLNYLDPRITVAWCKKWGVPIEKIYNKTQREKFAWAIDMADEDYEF
# TEST: Inhibition of recombinant human topoisomerase 1-mediated DNA relaxation expressed in Saccharomyces cerevisiae TopI null strain RS190 at 80 uM using negatively supercoiled pUC18 as substrate pretreated with enzyme for 15 mins followed by substrate addition measured after 15 secs by agarose gel electrophoresis
QUANTITY_MEASURED: inhibition (%)
Answers are plain numbers, in %.

Batch of 5 molecules: report inhibition for each.
1. Cc1ccc([C@H]2C[C@@H](c3ccccc3)Nc3c2cccc3P(=O)(c2ccccc2)c2ccccc2)cc1
2. O=P(c1ccccc1)(c1ccccc1)c1cccc2c(-c3ccccc3)cc(-c3ccccn3)nc12
3. FC(F)(F)c1ccc(-c2cc(-c3ccccc3)c3cccc(P(=S)(c4ccccc4)c4ccccc4)c3n2)cc1
4. O=P(c1ccccc1)(c1ccccc1)c1cccc2c(-c3ccc(F)cc3)cc(-c3ccc(F)cc3)nc12
5. O=P(c1ccccc1)(c1ccccc1)c1cccc2c1N[C@H](c1ccc(F)cc1)C[C@@H]2c1ccccc1

*A*
28
58
81
50
55

----------
Give measured IC50 for each item. Keep answers brief.
# System: SK-OV-3
# TEST: Antiproliferative activity against human SKOV3 cells after 48 hrs by CCK-8 assay
# Format: functional, cell-based
# MEASUREMENT_CONTEXT: SK-OV-3, 48 h

Below: 2 molecules and their reported IC50.
smiles_string=c1ccc([C@H]2C[C@@H](c3ccccc3)Nc3c2cccc3P(c2ccccc2)c2ccccc2)cc1 quantity_measured=IC50 measurement="> 50 µM"
smiles_string=O=P(c1ccccc1)(c1ccccc1)c1cccc2c(-c3ccccc3)cc(-c3ccc(C(F)(F)F)cc3)nc12 quantity_measured=IC50 measurement="15.2 µM"

Batch of 8 molecules: report IC50 for each.
1. Fc1ccc([C@H]2C[C@@H](c3ccc(F)cc3)Nc3c2cccc3P(c2ccccc2)c2ccccc2)cc1
2. O=P(c1ccccc1)(c1ccccc1)c1cccc2c1N[C@H](c1ccc(F)cc1)C[C@@H]2c1ccc(F)cc1
3. FC(F)(F)c1ccc([C@@H]2C[C@H](c3ccccc3)c3cccc(P(c4ccccc4)c4ccccc4)c3N2)cc1
4. Cc1ccc([C@H]2C[C@@H](c3ccccc3)Nc3c2cccc3P(=O)(c2ccccc2)c2ccccc2)cc1
5. FC(F)(F)c1ccc(-c2cc(-c3ccccc3)c3cccc(P(=S)(c4ccccc4)c4ccccc4)c3n2)cc1
6. COc1ccccc1[C@@H]1C[C@H](c2ccccc2)c2cccc(P(=O)(c3ccccc3)c3ccccc3)c2N1
7. Fc1ccc([C@H]2C[C@@H](c3ccc(F)cc3)Nc3c2cccc3P(=S)(c2ccccc2)c2ccccc2)cc1
8. FC(F)(F)c1ccc([C@@H]2C[C@H](c3ccccc3)c3cccc(P(=S)(c4ccccc4)c4ccccc4)c3N2)cc1

*A*
1: > 50 µM; 2: 17.8 µM; 3: > 50 µM; 4: > 50 µM; 5: > 50 µM; 6: > 50 µM; 7: > 50 µM; 8: > 50 µM

----------
# EXPERIMENTAL_TARGET: DNA topoisomerase 1 (Homo sapiens) (UniProt P11387)
# TEST: Inhibition of recombinant human topoisomerase 1-mediated DNA relaxation expressed in Saccharomyces cerevisiae TopI null strain RS190 at 80 uM using negatively supercoiled pUC18 as substrate pretreated with enzyme for 15 mins followed by substrate addition measured after 15 secs by agarose gel electrophoresis
Give measured inhibition for each item. Keep answers brief.
One number for each entry, in %.

Below: 3 molecules and their reported inhibition.
smiles_string=O=P(c1ccccc1)(c1ccccc1)c1cccc2c1N[C@H](c1ccccc1)C[C@@H]2c1ccccc1 experimental_target="DNA topoisomerase 1 (Homo sapiens) (UniProt P11387)" measurement=52
smiles_string=O=P(c1ccccc1)(c1ccccc1)c1cccc2c(-c3ccccc3)cc(-c3ccc(C(F)(F)F)cc3)nc12 experimental_target="DNA topoisomerase 1 (Homo sapiens) (UniProt P11387)" measurement=31
smiles_string=Cc1ccc(-c2cc(-c3ccccc3)nc3c(P(=O)(c4ccccc4)c4ccccc4)cccc23)cc1 experimental_target="DNA topoisomerase 1 (Homo sapiens) (UniProt P11387)" measurement=7

Now consider the entry below.
*Q* Can you share its inhibition? I mean this molecule: `S=P(c1ccccc1)(c1ccccc1)c1cccc2c(-c3ccccc3)cc(-c3ccccc3)nc12`
*A* 75

All figures here come from ChEMBL document CHEMBL4196061.
